target: sodium ion channel of Trpm5 bitter receptor (Mus musculus, UniProt Q9JJH7); construct: Put the removed tongue in a 2 ml EP tube, add 1-1.5 ml of 0.25% trypsin solution; from tissue; host or cells: cells dissociated with trypsin from mouse tongue; assay: Immunofluorescence experiment of sodium ion channels in mouse tongue cells stimulated with bitter agent; format: cell-based, mice; conditions: Bitterant 120 s (2% metronidazole solution)
Sequence (Q9JJH7 whole entry): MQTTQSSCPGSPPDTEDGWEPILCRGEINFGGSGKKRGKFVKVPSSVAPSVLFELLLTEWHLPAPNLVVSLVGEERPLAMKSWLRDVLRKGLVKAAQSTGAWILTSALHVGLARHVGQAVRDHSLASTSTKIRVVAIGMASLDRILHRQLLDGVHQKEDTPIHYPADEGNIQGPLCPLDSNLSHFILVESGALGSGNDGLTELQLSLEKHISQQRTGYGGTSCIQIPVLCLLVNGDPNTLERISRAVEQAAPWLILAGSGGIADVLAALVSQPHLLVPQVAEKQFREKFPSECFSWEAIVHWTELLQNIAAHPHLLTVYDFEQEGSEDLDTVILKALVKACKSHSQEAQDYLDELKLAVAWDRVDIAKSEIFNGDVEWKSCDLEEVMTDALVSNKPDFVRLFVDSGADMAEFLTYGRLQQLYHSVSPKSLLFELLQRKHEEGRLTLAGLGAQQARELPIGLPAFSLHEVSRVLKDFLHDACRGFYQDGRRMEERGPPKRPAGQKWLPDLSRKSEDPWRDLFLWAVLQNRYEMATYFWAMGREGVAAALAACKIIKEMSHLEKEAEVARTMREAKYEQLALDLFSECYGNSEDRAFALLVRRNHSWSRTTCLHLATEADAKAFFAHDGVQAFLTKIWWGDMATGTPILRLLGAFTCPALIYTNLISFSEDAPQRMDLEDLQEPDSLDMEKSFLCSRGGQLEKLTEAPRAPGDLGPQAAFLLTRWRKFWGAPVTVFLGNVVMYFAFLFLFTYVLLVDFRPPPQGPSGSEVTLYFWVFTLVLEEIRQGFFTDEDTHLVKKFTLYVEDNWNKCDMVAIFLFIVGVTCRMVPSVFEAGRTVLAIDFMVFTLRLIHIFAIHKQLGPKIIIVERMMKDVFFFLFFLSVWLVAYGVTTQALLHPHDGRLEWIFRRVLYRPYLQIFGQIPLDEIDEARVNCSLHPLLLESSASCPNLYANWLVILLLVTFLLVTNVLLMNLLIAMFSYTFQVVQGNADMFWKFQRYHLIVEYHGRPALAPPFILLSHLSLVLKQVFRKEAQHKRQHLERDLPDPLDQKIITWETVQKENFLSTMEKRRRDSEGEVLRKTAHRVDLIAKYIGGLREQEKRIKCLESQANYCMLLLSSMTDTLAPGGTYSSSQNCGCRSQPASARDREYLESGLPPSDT
OUTCOME MEASURE: average value of fluorescence brightness, base number removed
// print number alone

COMPOUND	OBSERVED MEASUREMENT
COc1cc(C(=O)O)ccc1O [Vanillic acid, 3-methoxy-4-hydroxybenzoic acid]	−0.203
O=CC=Cc1ccccc1	−0.654
COc1ccc(CCN(C)CCCC(C#N)(c2ccc(OC)c(OC)c2)C(C)C)cc1OC (stereo not shown) [Verapamil, reference compound]	−0.204

# evaluate next
Q. GET /values?readout=average value of fluorescence brightness, base number removed&item= C=CC(C)(O)CCC=C(C)C (stereo not shown)
A. −0.343
